# test.system: Guanine nucleotide-binding protein G(o) subunit alpha (Homo sapiens) (UniProt P09471)
# Sequence (P09471 whole entry, looked up): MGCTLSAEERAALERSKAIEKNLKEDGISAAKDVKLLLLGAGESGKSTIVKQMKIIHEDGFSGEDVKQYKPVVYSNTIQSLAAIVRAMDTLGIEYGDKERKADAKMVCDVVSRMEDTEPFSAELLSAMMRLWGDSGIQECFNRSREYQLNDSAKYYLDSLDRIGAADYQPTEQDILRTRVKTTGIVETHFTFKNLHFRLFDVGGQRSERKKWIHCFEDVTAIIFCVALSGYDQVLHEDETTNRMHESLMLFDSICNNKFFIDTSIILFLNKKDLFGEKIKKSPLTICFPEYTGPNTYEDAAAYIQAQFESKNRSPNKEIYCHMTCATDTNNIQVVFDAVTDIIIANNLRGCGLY
# protocol: modulators of RGS4 binding to Galphao, primary screen, biochemical, multiplexed bead flow cytometry (AID 1415);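 further: fluorescent Galphao activated with aluminum fluoride binding bead-coupled RGS4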
# stated.conditions: at 10 µM, actives lie on both sides
The whole screen tested about 220,000 compounds, of which about 710 (0.32%) were called active. No stated cut-off is given here; in the data, active means binding response below about 49% or above about 150%; inactive means in between. Many of the other results were omitted from the sample, so actives are more common in it than they were.
Answer with one of the outcomes given here: t for active, f for inactive

Cc1ccc(S(=O)(=O)NCC(=O)OCC(=O)N2CCc3ccccc32)cc1	t
COc1cc(C(CCN2CCN(c3ccccc3)CC2)c2c(OC)cc(OC)c3ccc(=O)oc23)cc(OC)c1OC (stereo not drawn)	f

Field: next compound
Look up the recorded call for C/C(=N\NC(=S)NC(C)C)c1ccc(C(C)(C)C)cc1 in this test.
f

###

# test.system: Guanine nucleotide-binding protein G(o) subunit alpha (Homo sapiens)
# protocol: modulators of RGS4 binding to Galphao, primary screen, biochemical, multiplexed bead flow cytometry (AID 1415);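 further: fluorescent Galphao activated with aluminum fluoride binding bead-coupled RGS4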
# stated.conditions: at 10 µM, actives lie on both sides
Out of some 220,000 compounds screened, about 710 (0.32%) were called active. No stated cut-off is given here; in the data, active means binding response below about 49% or above about 150%; inactive means in between. Only a selection was taken, and actives are over-represented in it overall.
Select the matching outcome among yes (active), no (inactive)

Cc1cccc(CSc2nc3c(c(=O)n2C)SCC3)c1	no
CCOC(=O)c1ccc(NC(=O)c2nc[nH]c2C(=O)N[C@@H](CCCCNC(=O)OC(C)(C)C)C(=O)OC(C)(C)C)cc1	no
C=CCC1(CC=C)CCCN1C(=O)CC1C(=O)NCCN1Cc1ccccc1OC (stereo unspecified)	no
Cc1cccc(NC(=O)CSc2nnc(CCNC(=O)OC(C)(C)C)o2)c1C	no
COCCNC(=S)Nc1cc(S(=O)(=O)N2CCOCC2)ccc1N1CCCCC1	no
COCCNC(=S)N/N=C/c1c(C)[nH]c2ccccc12	yes

Any idea what this test logged for CN1CCN(C(CNS(=O)(=O)c2cccs2)c2cccnc2)CC1 (stereo unspecified) ?
yes

Follow-up item: CCOC(=O)c1c(C)[nH]c(C2=NNC(=NC(C)COC)SC2)c1C (stereo unspecified)
no

Param item: Cc1cc(C)cc(N(CC(=O)Nc2c(C)n(C)n(-c3ccccc3)c2=O)S(C)(=O)=O)c1
yes

Please answer likewise for COC(=O)c1c(C)oc(C)c1S(=O)(=O)NCc1ccc(Cl)cc1
no

Also CCOc1ccc(NC(=O)CSc2ncnc3c2sc2ccccc23)cc1 , if possible.
no

What about CCCCOC(=O)Cn1c(=O)n(CC(=O)OCCCC)c2cc(C)ccc21 ?
no

Field entry: Cc1cc(NC(=O)COc2ccc(Cl)cc2Cl)n(CCC#N)n1
no

###

# test.system: Guanine nucleotide-binding protein G(o) subunit alpha (Homo sapiens) (UniProt P09471)
# protocol: modulators of RGS4 binding to Galphao, primary screen, biochemical, multiplexed bead flow cytometry (AID 1415);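 further: fluorescent Galphao activated with aluminum fluoride binding bead-coupled RGS4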
# stated.conditions: at 10 µM, actives lie on both sides
About 710 (0.32%) of roughly 220,000 compounds were called active. Rule as the data show it: active = binding response below about 49% or above about 150%; inactive = in between. The sample holds actives, similar compounds and a random draw of the others, so the mix is not that of the screen.
Pick from active, inactive when you respond.

O=C(CN1CCN(c2ccc(Cl)cc2)CC1)N1CCCC1	inactive
Cc1cc2nc(C)n(CCCNC(=O)Nc3ccccc3)c2cc1C	active
Cc1cs/c(=N\N=C\c2ccc(O)cc2)n1Cc1ccco1	inactive
COc1cc(OC)cc(C(=O)NCCSCc2ccco2)c1	inactive
CCCn1cc(SCC(N)=O)c2ccccc21	inactive

Please indicate how the test categorized COc1ccc(Cl)cc1C(=O)NNC(=O)c1nc2nc(C)cc(C)n2n1 .
inactive

Same again, this time with COc1cc(OC)nc(NC(=O)CCl)n1
inactive

What about this molecule? O=C(CNCc1cccs1)Nc1cc(S(=O)(=O)N2CCCC2)ccc1Cl
inactive
